test system: 883617-216-R-J1-PDC complex spheroids, growth, % test/control; experiment: Anticancer human tumor 883617-216-R-J1-PDC patient-derived bladder carcinoma cell line growth inhibition [AhR]; conditions: second compound 10 µM; first compound 1 µM; active compounds read low
List of viability, T/C values.
Express it in %; write the number only.

* CC1COCCN1c1cc(C2(S(C)(=N)=O)CC2)nc(-c2ccnc3[nH]ccc23)n1 (stereo not drawn) + CC(CO)NC(=O)c1cc(-c2ccc(Cl)cc2)nn(-c2cnn(C)c2)c1=O | 153

Entry Nc1ccccc1NC(=O)c1ccc(CNC(=O)OCc2cccnc2)cc1 + Cc1ccccc1N=Nc1ccc(NC(=O)c2ccnn2C)c(C)c1 has what viability, T/C? 51.9

What does the record list as viability, T/C for COc1cc(Nc2ncc3c(n2)-c2ccc(Cl)cc2C(c2c(F)cccc2OC)=NC3)ccc1C(=O)O + Cc1cncc(-c2nc(NCCc3c[nH]c4ccccc34)c3ncn(C(C)C)c3n2)c1 ? 51.4

---

system: 883617-216-R-J1-PDC complex spheroids, growth, % test/control; experiment: Anticancer human tumor 883617-216-R-J1-PDC cell line growth inhibition [AhR]; details: second compound 10 µM; first compound 3.16 µM; active compounds read low;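 also: exposure lasted 7 days after dosing on day 3 of spheroid growth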
MEASURED_PARAMETER: viability, T/C (%)
# unit: % | format: bare number

Example results:
• O=C(C=Cc1cccc(S(=O)(=O)Nc2ccccc2)c1)NO + Cc1cncc(-c2nc(NCCc3c[nH]c4ccccc34)c3ncn(C(C)C)c3n2)c1 = 22
• NS(=O)(=O)OCC1CC(n2ccc3c(NC4CCc5ccccc54)ncnc32)CC1O (stereo not drawn) + Cc1ccccc1N=Nc1ccc(NC(=O)c2ccnn2C)c(C)c1 = 43.6

// switching to the query compound
Entry NS(=O)(=O)OCC1CC(n2ccc3c(NC4CCc5ccccc54)ncnc32)CC1O (stereo not drawn) + Cc1cncc(-c2nc(NCCc3c[nH]c4ccccc34)c3ncn(C(C)C)c3n2)c1 has what viability, T/C? 4.81

---

System: 883617-216-R-J1-PDC complex spheroids, growth, % test/control
Test: Anticancer human tumor 883617-216-R-J1-PDC cell line growth inhibition [AhR];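 also: exposure lasted 7 days after dosing on day 3 of spheroid growth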
Conditions: second compound 0.1 µM; first compound 3.16 µM; active compounds read low
From the text: Multicellular complex tumor spheroid response to aryl hydrocarbon receptor antagonists in combination with a variety of drugs and investigational agents in selected tumor cell lines […] Compounds. […] If the clinical Cmax for an agent had not been determined, the highest concentration tested was 10 microM (Table 1). […]
MEASURED_PARAMETER: viability, T/C (%)
The figure you give is taken to be in %; do not add the unit.

Observe how each entry below is paired with its result.
• CC(C)c1c(-c2ccccc2)nc2c(C#N)c[nH]n2c1=O + Cc1cncc(-c2nc(NCCc3c[nH]c4ccccc34)c3ncn(C(C)C)c3n2)c1 = 92.6
• COc1cccc2c1C(=O)c1c(O)c3c(c(O)c1C2=O)CC(O)(C(=O)CO)CC3OC1CC(N)C(O)C(C)O1 (configuration not stated) + Cc1cncc(-c2nc(NCCc3c[nH]c4ccccc34)c3ncn(C(C)C)c3n2)c1 = 0.11

Field request: viability, T/C | item: Nc1ccccc1NC(=O)c1ccc(CNC(=O)OCc2cccnc2)cc1 + Cc1ccccc1N=Nc1ccc(NC(=O)c2ccnn2C)c(C)c1 23.3

Which viability, T/C reading was recorded for the compound O=C(C=Cc1cccc(S(=O)(=O)Nc2ccccc2)c1)NO + CC(CO)NC(=O)c1cc(-c2ccc(Cl)cc2)nn(-c2cnn(C)c2)c1=O ? 55

Fill in: viability, T/C of COc1cc(Nc2ncc3c(n2)-c2ccc(Cl)cc2C(c2c(F)cccc2OC)=NC3)ccc1C(=O)O + CC(CO)NC(=O)c1cc(-c2ccc(Cl)cc2)nn(-c2cnn(C)c2)c1=O is ___ 86.6

Can you share its viability, T/C? I mean this compound: CC1COCCN1c1cc(C2(S(C)(=N)=O)CC2)nc(-c2ccnc3[nH]ccc23)n1 (configuration not stated) + Cc1ccccc1N=Nc1ccc(NC(=O)c2ccnn2C)c(C)c1 70.9

# viability, T/C lookup, item NS(=O)(=O)OCC1CC(n2ccc3c(NC4CCc5ccccc54)ncnc32)CC1O (configuration not stated) + Cc1cncc(-c2nc(NCCc3c[nH]c4ccccc34)c3ncn(C(C)C)c3n2)c1 43.6
